Target: PCSK9 (Homo sapiens, UniProt Q8NBP7, G670E/V474I)
Sequence (Q8NBP7 with tags, fused parts or gaps V474I/G670E): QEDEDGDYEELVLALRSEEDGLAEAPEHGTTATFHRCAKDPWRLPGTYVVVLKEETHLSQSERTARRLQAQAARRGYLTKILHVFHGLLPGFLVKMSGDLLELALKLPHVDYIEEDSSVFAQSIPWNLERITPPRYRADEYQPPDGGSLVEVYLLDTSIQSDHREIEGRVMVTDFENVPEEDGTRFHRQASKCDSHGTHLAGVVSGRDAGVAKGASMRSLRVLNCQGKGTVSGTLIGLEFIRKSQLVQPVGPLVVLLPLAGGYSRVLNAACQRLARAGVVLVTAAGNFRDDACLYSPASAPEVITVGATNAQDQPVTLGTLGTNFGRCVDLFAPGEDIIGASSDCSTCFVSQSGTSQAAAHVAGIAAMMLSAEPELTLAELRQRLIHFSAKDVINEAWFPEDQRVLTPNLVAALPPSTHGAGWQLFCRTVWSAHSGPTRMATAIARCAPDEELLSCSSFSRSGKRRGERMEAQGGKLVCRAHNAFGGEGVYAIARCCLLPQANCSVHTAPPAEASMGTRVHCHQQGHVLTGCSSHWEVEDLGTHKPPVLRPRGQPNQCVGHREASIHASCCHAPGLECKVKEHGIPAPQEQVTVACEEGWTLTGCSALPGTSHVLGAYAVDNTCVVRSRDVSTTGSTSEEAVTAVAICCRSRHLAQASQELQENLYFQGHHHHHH
Assay: biochemical
property.label: pIC50
Interpret pIC50 as the negative base-10 log of the concentration measured in mol/L.

These recorded examples may help you get a feel for the data.
| compound | pIC50 |
| --- | --- |
| Cc1ncc(N[C@H]2CC[C@H](Nc3ccc(-n4cc(C#N)ccc4=O)cn3)C2)nc1C [Example 48] | 6.95 |
| COc1ccc(=O)n(-c2ccc(N[C@H]3CC[C@H](Nc4cnc(C)c(C)n4)C3)nc2)c1 [Example 15] | 6.93 |
| Cc1nc(N[C@H]2CC[C@H](Nc3ccc(-n4ccccc4=O)cn3)C2)cnc1OC(F)F [Example 91] | 6.36 |
| COc1ccc(=O)n(-c2ccc(N[C@H]3CC[C@H](Nc4cnc(Cl)cn4)C3)nc2)c1 [Example 28] | 7.37 |
| CC(=O)c1cnc(N[C@H]2CC[C@H](Nc3ccc(-n4ccccc4=O)cn3)C2)cn1 [Example 6] | 5.93 |
| Cn1c(=O)n(-c2ccc(N[C@H]3CC[C@H](Nc4cnc(OC(F)F)cn4)C3)nc2)c2ncccc21 [Example 96] | 8.14 |
| Cc1cnc(N[C@H]2CC[C@H](Nc3ccc(-n4cccc(OC(F)(F)F)c4=O)cn3)C2)cn1 [Example 148] | 8.10 |

Alright, here's another compound for you.
Q. Query (compound): Cc1cnc(N[C@H]2CC[C@H](Nc3ccc(-n4c(=O)ccc5cccnc54)cn3)C2)cn1 [Example 37] ; field requested: pIC50
A. 8.19

----------
This document collects log10 of Kd values reported for human PCSK9 (Homo sapiens, UniProt Q8NBP7).
Transform log10 | Measure Kd | Unit nM

These recorded examples may help you get a feel for the data.
| compound | tested.system | property.label | observed.measurement |
| --- | --- | --- | --- |
| COc1cccn(-c2ccc(N[C@H]3CC[C@H](Nc4cnc(C)cn4)C3)nc2)c1=O [Example 36] | human PCSK9 (Homo sapiens, UniProt Q8NBP7) | log10 of Kd | 0.72 |
| Cc1cnc(N[C@H]2CC[C@H](Nc3ccc(-n4c(=O)n(C)c5ccccc54)cn3)C2)cn1 [Example 45] | human PCSK9 (Homo sapiens, UniProt Q8NBP7) | log10 of Kd | 0.18 |
| O=c1ccccn1-c1ccc(N[C@H]2CC[C@H](Nc3cnc4ccc(Cl)cc4n3)C2)nc1 [Example 139] | human PCSK9 (Homo sapiens, UniProt Q8NBP7) | log10 of Kd | 2.66 |
| CC(=O)c1cnc(N[C@H]2CC[C@H](Nc3ccc(-n4ccccc4=O)cn3)C2)cn1 [Example 6] | human PCSK9 (Homo sapiens, UniProt Q8NBP7) | log10 of Kd | 2.94 |
| COc1ccnn(-c2ccc(N[C@H]3CC[C@H](Nc4cnc(C)cn4)C3)nc2)c1=O [Example 226] | human PCSK9 (Homo sapiens, UniProt Q8NBP7) | log10 of Kd | 0.75 |

Q. Checklist item: log10 of Kd tested on human PCSK9 (Homo sapiens, UniProt Q8NBP7), entry COc1cnc(N[C@H]2CC[C@H](Nc3ccc(-n4ccccc4=O)cn3)C2)cn1 [Example 140] , value?
A. 1.91

Q. Same question, Cc1ncc(N[C@H]2CC[C@H](Nc3ccc(-n4cccc(C)c4=O)cn3)C2)nc1C [Example 18] this time
A. 1.15

Q. Same question, Cc1cccn(-c2ccc(N[C@H]3CC[C@H](Nc4cnc(Cl)cn4)C3)nc2)c1=O [Example 24] this time
A. 0.60

----------
Reported IC50 values are given for each entry in this list.
Biological target: potassium ion channel hERG (human Ether-á-go-go-Related Gene) (Homo sapiens, UniProt Q12809)
Sequence (Q12809 whole entry): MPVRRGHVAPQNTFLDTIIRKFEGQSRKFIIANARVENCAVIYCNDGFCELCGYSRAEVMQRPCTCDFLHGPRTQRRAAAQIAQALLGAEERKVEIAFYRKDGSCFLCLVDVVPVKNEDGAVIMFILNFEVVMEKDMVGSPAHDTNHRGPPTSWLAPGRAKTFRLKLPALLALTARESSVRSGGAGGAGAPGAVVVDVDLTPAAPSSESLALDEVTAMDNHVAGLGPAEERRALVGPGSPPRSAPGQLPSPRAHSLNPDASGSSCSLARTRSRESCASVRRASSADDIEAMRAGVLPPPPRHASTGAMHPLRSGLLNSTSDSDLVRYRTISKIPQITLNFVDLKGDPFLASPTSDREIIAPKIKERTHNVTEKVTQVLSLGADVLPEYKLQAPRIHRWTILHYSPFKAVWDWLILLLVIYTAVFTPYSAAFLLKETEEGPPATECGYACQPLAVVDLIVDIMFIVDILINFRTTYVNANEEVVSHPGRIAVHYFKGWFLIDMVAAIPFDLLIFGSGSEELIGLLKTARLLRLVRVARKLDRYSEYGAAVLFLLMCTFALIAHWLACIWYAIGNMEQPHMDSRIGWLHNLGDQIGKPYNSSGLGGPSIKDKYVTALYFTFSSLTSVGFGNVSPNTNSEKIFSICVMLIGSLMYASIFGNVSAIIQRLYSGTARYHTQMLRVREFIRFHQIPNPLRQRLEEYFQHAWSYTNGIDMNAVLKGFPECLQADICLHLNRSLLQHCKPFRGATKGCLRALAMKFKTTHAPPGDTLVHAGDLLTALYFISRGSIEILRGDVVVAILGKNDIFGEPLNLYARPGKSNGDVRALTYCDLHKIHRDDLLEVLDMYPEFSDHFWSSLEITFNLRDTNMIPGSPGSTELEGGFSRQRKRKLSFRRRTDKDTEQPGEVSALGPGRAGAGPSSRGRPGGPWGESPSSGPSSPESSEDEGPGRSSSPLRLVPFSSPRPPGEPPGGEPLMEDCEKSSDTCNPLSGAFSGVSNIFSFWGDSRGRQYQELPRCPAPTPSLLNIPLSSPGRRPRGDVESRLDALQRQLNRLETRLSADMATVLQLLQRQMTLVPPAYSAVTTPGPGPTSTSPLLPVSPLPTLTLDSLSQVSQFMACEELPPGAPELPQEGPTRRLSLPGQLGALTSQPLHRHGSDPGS
Test: Assay 5 - hERG assay (SyncroPatch 384PE patch clamp, CHO cells)
Details: geometric mean; CHO cells over-expressing hERG; read-out: Assay 5 (hERG Hu CHO IF EPh CR-Syncro) GMean IC50

| compound | observed.measurement |
| --- | --- |
| O=c1c(Cl)cccn1-c1ccc(N[C@H]2CC[C@H](Nc3cnc(C4CC4)cn3)C2)nc1 | 12.7 µM |

Q. Query (compound): Cc1cnc(N[C@H]2CC[C@H](Nc3ccc(-n4nccc(C)c4=O)cn3)C2)cn1 ; field requested: IC50
A. > 40.1 µM

----------
This document collects pKd values reported for human PCSK9 (Homo sapiens, UniProt Q8NBP7).
Interpret pKd as the negative base-10 log of the concentration measured in mol/L.

Q. Query (compound): Cc1cnc(N[C@H]2CC[C@H](Nc3ccc(-n4cccc(C#N)c4=O)cn3)C2)cn1 [Example 103] ; field requested: pKd
A. 8.33

Q. Same question, COc1cccn(-c2ccc(N[C@H]3CC[C@H](Nc4cnc(C5CC5)cn4)C3)nc2)c1=O [Example 106] this time
A. 8.52

Q. Same question, Cc1nc(N[C@H]2CC[C@H](Nc3ccc(-n4ccccc4=O)cn3)C2)cnc1Cl [Example 102] this time
A. 6.91

Q. Same question, N#Cc1cnc(N[C@H]2CC[C@H](Nc3ccc(-n4ccccc4=O)cn3)C2)cn1 [Example 5] this time
A. 6.39

----------
Reported IC50 values are given for each entry in this list.
Target: PCSK9 (Homo sapiens, UniProt Q8NBP7, G670E/V474I)
Assay: biochemical
Please reply with the bare figure in nM and do not write the unit itself.

These recorded examples may help you get a feel for the data.
| molecule | tested.system | quantity.unit | observed.measurement |
| --- | --- | --- | --- |
| Cc1cnc(N[C@H]2CC[C@H](Nc3ccc(-n4c(=O)n(C)c5ccc(C#N)cc54)cn3)C2)cn1 | PCSK9 (Homo sapiens, UniProt Q8NBP7, G670E/V474I) | nM | 1 |
| Cn1c(=O)n(-c2ccc(N[C@H]3CC[C@H](Nc4cnc(OC(F)F)cn4)C3)nc2)c2ccccc21 | PCSK9 (Homo sapiens, UniProt Q8NBP7, G670E/V474I) | nM | 2.5 |
| Cc1ncc(N[C@H]2CC[C@H](Nc3ccc(-n4c(=O)n(C)c5cccnc54)cn3)C2)nc1C | PCSK9 (Homo sapiens, UniProt Q8NBP7, G670E/V474I) | nM | 11 |

Q. Query (molecule): O=c1ccc(-c2ccc(F)cc2)cn1-c1ccc(N[C@H]2CC[C@H](Nc3cnc(Cl)cn3)C2)nc1 ; field requested: IC50
A. 7.9

Q. Same question, Cc1cnc(N[C@H]2CC[C@H](Nc3ccc(-n4cccc(-c5cn[nH]c5)c4=O)cn3)C2)cn1 this time
A. 3.5

Q. Same question, Cc1cnc(N[C@H]2CC[C@H](Nc3ccc(-n4cccc(C(F)(F)F)c4=O)cn3)C2)cn1 this time
A. 5.2

Q. Same question, N#Cc1cccn(-c2ccc(N[C@H]3CC[C@H](Nc4cnc(C5CC5)cn4)C3)nc2)c1=O this time
A. 5.8

Q. Same question, Cc1ccc(=O)n(-c2ccc(N[C@H]3CC[C@H](Nc4cnc(Cl)cn4)C3)nc2)c1 this time
A. 27

Q. Same question, O=c1ccc2cccnc2n1-c1ccc(N[C@H]2CC[C@H](Nc3cnc(OC(F)F)cn3)C2)nc1 this time
A. 9.2

Q. Same question, COc1cccn(-c2ccc(N[C@H]3CC[C@H](Nc4cnc(C)cn4)C3)nc2)c1=O (racemic) [Example 170] this time
A. 11

Q. Same question, COc1ccc(=O)n(-c2ccc(N[C@H]3CC[C@H](Nc4cnc(OC(F)F)cn4)C3)nc2)c1 this time
A. 114

Q. Same question, O=c1ccccn1-c1ccc(N[C@H]2CC[C@H](Nc3cnc4c(F)cccc4n3)C2)nc1 this time
A. 960

Q. Same question, Cc1cnc(N[C@H]2CC[C@H](Nc3ccc(-n4ccccc4=O)cn3)C2)c(=O)[nH]1 this time
A. 307

Q. Same question, CNC(=O)c1cnc(N[C@H]2CC[C@H](Nc3ccc(-n4cccc(Cl)c4=O)cn3)C2)cn1 this time
A. 3960

Q. Same question, Cc1ncc(N[C@H]2CC[C@H](Nc3ccc(-n4cc(Cl)ccc4=O)cn3)C2)nc1C this time
A. 53

Q. Same question, Cc1nc(N[C@H]2CC[C@H](Nc3ccc(-n4ccccc4=O)cn3)C2)cnc1C#N this time
A. 2750

Q. Same question, O=c1c(Cl)cccn1-c1ccc(N[C@H]2CC[C@H](Nc3cnc(C4CC4)cn3)C2)nc1 this time
A. 3.4

Q. Same question, Cn1ccc2ncc(N[C@H]3CC[C@H](Nc4ccc(-n5ccccc5=O)cn4)C3)nc21 this time
A. 257

----------
Reported pIC50 values are given for each entry in this list.
Molecular target: potassium ion channel hERG (human Ether-á-go-go-Related Gene) (Homo sapiens, UniProt Q12809)
Assay: Assay 5 - hERG assay (SyncroPatch 384PE patch clamp, CHO cells)
Settings: geometric mean; CHO cells over-expressing hERG; read-out: Assay 5 (hERG Hu CHO IF EPh CR-Syncro) GMean IC50
Interpret pIC50 as the negative base-10 log of the concentration measured in mol/L.

These recorded examples may help you get a feel for the data.
| molecule | observed.measurement |
| --- | --- |
| O=c1ccc2ccccc2n1-c1ccc(N[C@H]2CC[C@H](Nc3cnc(OC(F)F)cn3)C2)nc1 [Example 88] | 5.35 |
| Cc1nc(N[C@H]2CC[C@H](Nc3ccc(-n4ccccc4=O)cn3)C2)cnc1Cl [Example 102] | 4.75 |
| Cn1c(=O)n(-c2ccc(N[C@H]3CC[C@H](Nc4cnc(C5CC5)cn4)C3)nc2)c2ncccc21 [Example 105] | 4.69 |

Alright, here's another molecule for you.
Q. Query (molecule): Cc1cccn(-c2ccc(N[C@H]3CC[C@H](Nc4cnc(Cl)cn4)C3)nc2)c1=O [Example 24] ; field requested: pIC50
A. 4.69
